# Protocol: Test 3: Acute Toxicity, oral, mice
# Details: mouse, in vivo, 7 days observation
# Protocol: Certain test compounds of the invention were administered orally to SD-strain female or male rats each having a body weight of 150 to 200 g of ddN-strain male mice each having a body weight of about 20 g.
Measured Attribute: LD50 at 168 h (mg/kg)

> print(dat)
                                   compound  measured.attribute  comparison.symbol  measured
1  COc1ccc(C(O)CN2CCN(C(c3ccccc3)c3ccccc3)CC2)c(OC)c1 (stereo not shown)       LD50 at 168 h                  =       350
2  OC(CN1CCN(C(c2ccccc2)c2ccccc2)CC1)c1ccc(OCc2ccccc2)cc1 (stereo not shown)       LD50 at 168 h                  >      2000
3  COc1ccc(C(O)CN2CCN(C(c3ccccc3)c3ccccc3)CC2)c(OC)c1OC (stereo not shown)       LD50 at 168 h                  =      1230
4  COc1cc(C(O)CN2CCN(C(c3ccccc3)c3ccccc3)CC2)cc(OC)c1OC (stereo not shown)       LD50 at 168 h                  >      2000
5  C=CCOc1ccc(C(O)CN2CCN(C(c3ccccc3)c3ccccc3)CC2)cc1 (stereo not shown)       LD50 at 168 h                  >      2000
6  OC(CN1CCN(C(c2ccccc2)c2ccccc2)CC1)c1ccc(OCc2ccccc2)cc1OCc1ccccc1 (stereo not shown)       LD50 at 168 h                  >      2000
7  COc1ccc(C(O)CN2CCN(C(c3ccccc3)c3ccccc3)CC2)cc1OC (stereo not shown)       LD50 at 168 h                  =       470

----------
# Protocol: Test 3: Acute Toxicity, oral, rats
# Details: rat, in vivo, 7 days observation
Measured Attribute: LD50 at 168 h

> print(dat)
                                   molecule      measured
1  Oc1ccc(C(O)CN2CCN(C(c3ccccc3)c3ccccc3)CC2)cc1 (centres unmarked) [Inventive compound 1]  > 2000 mg/kg
2  C[C@@H]([C@H](O)c1ccc(O)cc1)N1CCN(C(c2ccccc2)c2ccccc2)CC1 (relative stereo) [Inventive compound 2]  > 2000 mg/kg
